Ref: paper PMC3530961

METHOD: intrinsic clearance
Type: in vitro ADME, mouse
MEASUREMENT_SETUP: female CD1 mouse liver microsomes, 0.5 µM compound
VALUE_KIND: microsomal stability (CLi) (mL/min/g)

Field: example entries. Status: answers known.
> print(dat)
                                   compound  unit.spec  value.reported
1  Cc1cn([C@@H]2C[C@H](O)[C@@H](CNC(=O)Nc3ccc(OCc4ccccc4)cc3)O2)c(=O)[nH]c1=O [Compound 60]   mL/min/g               3
2  Cc1cn([C@@H]2C[C@H](O)[C@@H](CNC(=O)Nc3ccc(Oc4ccccc4)cc3)O2)c(=O)[nH]c1=O [Compound 66]   mL/min/g             1.8
3  Cc1cn([C@@H]2C[C@H](O)[C@@H](CNC(=O)Nc3ccc(-c4ccccc4)cc3)O2)c(=O)[nH]c1=O [Compound 57]   mL/min/g             1.9

(I) Cc1cn([C@@H]2C[C@H](O)[C@@H](CNC(=O)Nc3ccc(OCc4ccccc4Cl)cc3)O2)c(=O)[nH]c1=O [Compound 84]
(II) Cc1cn([C@@H]2C[C@H](O)[C@@H](CNC(=O)Nc3ccc(N4CCCCC4)cc3)O2)c(=O)[nH]c1=O [Compound 63]
*Q* Short answer wanted: higher microsomal stability (CLi), I or II ? Pick one and reply with its label.
*A* I
(I: 6 mL/min/g, II: 0.5 mL/min/g)
